Tested on: L1210
METHOD: In vitro inhibition of L1210 mouse leukemia cell growth in culture
Type: functional, cell-based
PROPERTY_MEASURED: IC50

• C#CCN(Cc1ccc2nc(C)cc(SC)c2c1)c1ccc(C(=O)N[C@@H](CCC(=O)O)C(=O)O)cc1 = 100 µM
• CCN(Cc1ccc2nc(C)cc(Cl)c2c1)c1ccc(C(=O)N[C@@H](CCC(=O)O)C(=O)O)cc1 = 23 µM
• C#CCN(Cc1ccc2nc(NC(C)=O)cc(Cl)c2c1)c1ccc(C(=O)N[C@@H](CCC(=O)O)C(=O)O)cc1 = > 100 µM
• CCN(Cc1ccc2nccc(Cl)c2c1)c1ccc(C(=O)N[C@@H](CCC(=O)O)C(=O)O)cc1 = 30 µM
• C#CCN(Cc1ccc2nc(C)cc(C#N)c2c1)c1ccc(C(=O)N[C@@H](CCC(=O)O)C(=O)O)cc1 = 75 µM
• C#CCN(Cc1ccc2nc(Cl)cc(C)c2c1)c1ccc(C(=O)N[C@@H](CCC(=O)O)C(=O)O)cc1 = > 100 µM
• C#CCN(Cc1ccc2nc(CF)cc(Cl)c2c1)c1ccc(C(=O)N[C@@H](CCC(=O)O)C(=O)O)cc1 = > 100 µM
• CCN(Cc1ccc2nc(N)cc(OC)c2c1)c1ccc(C(=O)N[C@@H](CCC(=O)O)C(=O)O)cc1 = 100 µM

* * *

TESTED_SYSTEM: Thymidylate synthase (Mus musculus)
Sequence (P07607 whole entry): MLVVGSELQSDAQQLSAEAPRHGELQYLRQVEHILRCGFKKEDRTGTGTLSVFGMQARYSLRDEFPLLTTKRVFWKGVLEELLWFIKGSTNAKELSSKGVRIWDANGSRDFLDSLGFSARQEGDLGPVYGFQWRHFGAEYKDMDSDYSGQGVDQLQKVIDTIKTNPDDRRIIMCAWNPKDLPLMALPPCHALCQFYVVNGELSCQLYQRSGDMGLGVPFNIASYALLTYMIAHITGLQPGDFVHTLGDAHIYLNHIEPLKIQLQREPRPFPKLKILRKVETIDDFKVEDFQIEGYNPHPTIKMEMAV
METHOD: In vitro inhibitory activity against thymidylate synthase from L1210 mouse leukemia cells
pIC50: −log10 of the molar value.
Class fulfilled: pIC50 at least 6. Class not fulfilled: pIC50 below 6.

- C#CCN(Cc1ccc2nc(Cl)cc(Cl)c2c1)c1ccc(C(=O)N[C@@H](CCC(=O)O)C(=O)O)c(F)c1: fulfilled
- C#CCN(Cc1ccc2nc(N)cc(Cl)c2c1)c1ccc(C(=O)N[C@@H](CCC(=O)O)C(=O)O)c(F)c1: fulfilled
- C#CCN(Cc1ccc2nc(C(F)(F)F)cc(Cl)c2c1)c1ccc(C(=O)N[C@@H](CCC(=O)O)C(=O)O)cc1: fulfilled
- Cc1cc(Cl)c2cc(CN(C)c3ccc(C(=O)N[C@@H](CCC(=O)O)C(=O)O)cc3)ccc2n1: not fulfilled
- C#CCN(Cc1ccc2nc(C)cc(OC)c2c1)c1ccc(C(=O)N[C@@H](CCC(=O)O)C(=O)O)cc1: not fulfilled
- C#CCN(Cc1ccc2nc(Cl)cc(OC)c2c1)c1ccc(C(=O)N[C@@H](CCC(=O)O)C(=O)O)cc1: fulfilled
- Cc1cc(Cl)c2cc(CNc3ccc(C(=O)N[C@@H](CCC(=O)O)C(=O)O)cc3)ccc2n1: not fulfilled
- CCN(Cc1ccc2nc(N)cc(OC)c2c1)c1ccc(C(=O)N[C@@H](CCC(=O)O)C(=O)O)cc1: not fulfilled
- C#CCN(Cc1ccc2nc(C)cc(Cl)c2c1)c1ccc(C(=O)N[C@@H](CCC(=O)O)C(=O)O)c(F)c1: fulfilled
- C#CCN(Cc1ccc2nc(C)cc(O)c2c1)c1ccc(C(=O)N[C@@H](CCC(=O)O)C(=O)O)cc1: not fulfilled
- C#CCN(Cc1ccc2nc(C(=O)O)cc(Cl)c2c1)c1ccc(C(=O)N[C@@H](CCC(=O)O)C(=O)O)cc1: not fulfilled
- C#CCN(Cc1ccc2nc(N)cc(C)c2c1)c1ccc(C(=O)N[C@@H](CCC(=O)O)C(=O)O)cc1: fulfilled
- C#CCN(Cc1ccc2nc(C)cc(Cl)c2c1)c1ccc(C(=O)N[C@@H](CCC(=O)O)C(=O)O)cc1: fulfilled
- C#CCN(Cc1ccc2nc(C)cc(Br)c2c1)c1ccc(C(=O)N[C@@H](CCC(=O)O)C(=O)O)c(F)c1: fulfilled
